Species on record: Oryctolagus cuniculus
protocol summary: Effect on ADP-induced platelet aggregation in rabbit platelet-rich plasma at 1 uM
Assay type: functional
Numbered stars: 1 amine (or outer) side, 2 acyl side, 3 side chain; on linkers, the order of the positions; unused ones are H or OH. Square brackets hold non-standard residues; d marks the D form. Peptide text beside a SMILES is read from it. X1 = COc1cc(C2c3[nH]c4ccccc4c3CC(C(=O)[*:2])N2[*:1])cc(OC)c1O
Recorded Activity by entry
value type: Activity (%)

1) COc1cc(C2N[C@H](C(=O)O)Cc3c2[nH]c2ccccc32)cc(OC)c1O (some centres undefined)    46.65
2) COc1cc(C2NC(C(=O)N[C@@H](CCCN=C(N)N)C(=O)NCC(=O)N[C@@H](CC(=O)O)C(=O)N[C@@H](CO)C(=O)O)Cc3c2[nH]c2ccccc32)cc(OC)c1O (some centres undefined) (H-[X1]RGDS-OH)    28.31
3) CC(C)[C@H](NC(=O)[C@H](CC(=O)O)NC(=O)CNC(=O)[C@@H](N)CCCNC(=N)N)C(=O)O (H-RGDV-OH)    29.61
4) N=C(N)NCCC[C@H](N)C(=O)NCC(=O)N[C@@H](CC(=O)O)C(=O)N[C@@H](CO)C(=O)O    39.62
